Assay summary: Microsomal assay, rat liver microsome stability
Measurement context: liver microsomes, pH 7.4
Assay endpoint: half-life at 1 μM (min)

Here is how some compounds turned out for half-life at 1 μM.
COc1cc2c(Oc3ccc(NC(=O)C4(C(=O)N(C)c5ccc(F)cc5)CC4)cc3F)ccnc2cc1OCCCN1CCOCC1; 1.6
COc1cc2nccc(Oc3ncc(NC(=O)C4(C(=O)N(C)c5ccc(F)cc5)CC4)cc3F)c2cc1C(N)=O; 1.2
COc1cc2nccc(Oc3ccc(NC(=O)C4(C(=O)N(C)c5ccc(F)cc5)CC4)cc3F)c2cc1OC; 1.3
CNC(=O)c1cc2c(Oc3ncc(NC(=O)C4(C(=O)N(C)c5ccc(F)cc5)CC4)cc3F)ccnc2cc1OC; 1.3

I: COc1cc2nccc(Oc3ccc(NC(=O)C4(C(=O)N(C)c5ccc(F)cc5)CC4)cc3)c2cc1OC
II: COc1cc2nccc(Oc3ccc(N(C)C(=O)C4(C(=O)Nc5ccc(F)cc5)CC4)cc3F)c2cc1OC
From the recorded data, which exceeds the other in half-life at 1 μM: I or II ? Response format: the label of the selected entry.
II

====

Assay summary: Microsomal assay, mouse liver microsome stability
Measurement context: liver microsomes, pH 7.4
Assay endpoint: half-life at 1 μM (min)

Example cases with answers are listed next.
COc1cc2nccc(Oc3ccc(NC(=O)C4(C(=O)N(C)c5ccc(F)cc5)CC4)cc3F)c2cc1OC; 4.1
COc1cc2nccc(Oc3ncc(NC(=O)C4(C(=O)N(C)c5ccc(F)cc5)CC4)cc3F)c2cc1C(N)=O; 1.9
CNC(=O)c1cc2c(Oc3ncc(NC(=O)C4(C(=O)N(C)c5ccc(F)cc5)CC4)cc3F)ccnc2cc1OC; 2.6

I: COc1cc2c(Oc3ccc(NC(=O)C4(C(=O)N(C)c5ccc(F)cc5)CC4)cc3F)ccnc2cc1OCCCN1CCOCC1
II: COc1cc2nccc(Oc3ccc(NC(=O)C4(C(=O)N(C)c5ccc(F)cc5)CC4)cc3)c2cc1OC
Select the item whose half-life at 1 μM value is smaller, choosing between I and II . Refer to your chosen item by its label in the answer.
II
(II: 3.1 min, I: 7.3 min)

====

Assay summary: Microsomal assay, human liver microsome stability
Measurement context: liver microsomes, pH 7.4
Assay endpoint: half-life at 1 μM (min)

Below, each entry is followed by its recorded half-life at 1 μM result.
COc1cc2c(Oc3ccc(NC(=O)C4(C(=O)N(C)c5ccc(F)cc5)CC4)cc3F)ccnc2cc1OCCCN1CCOCC1 [Compound 11]; 1.6
CNC(=O)c1cc2c(Oc3ncc(NC(=O)C4(C(=O)N(C)c5ccc(F)cc5)CC4)cc3F)ccnc2cc1OC [Compound 34]; 1.3
COc1cc2nccc(Oc3ccc(NC(=O)C4(C(=O)N(C)c5ccc(F)cc5)CC4)cc3)c2cc1OC [Compound 9]; 1.4
COc1cc2nccc(Oc3ccc(NC(=O)C4(C(=O)N(C)c5ccc(F)cc5)CC4)cc3F)c2cc1OC [Compound 10]; 1.3

A: COc1cc2nccc(Oc3ncc(NC(=O)C4(C(=O)N(C)c5ccc(F)cc5)CC4)cc3F)c2cc1C(N)=O [Compound 35]
B: COc1cc2nccc(Oc3ccc(N(C)C(=O)C4(C(=O)Nc5ccc(F)cc5)CC4)cc3F)c2cc1OC [Compound 51]
Returns: the label, A or B , whose recorded half-life at 1 μM is the lower number. Use the label to indicate which entry you chose.
A

Values from patent US20220089541A1
